test: Cytotoxicity against human A549 cells assessed as cell viability after 48 hrs by Alamar blue assay; format: cell-based
Field: label. Allowed values: Yes (CC50 at 48 h < 30 µM) or No (CC50 at 48 h >= 30 µM).

Example entries begin here.
compound	assignedCategory
CC(C)(C)OC(=O)N1CCN(C(=O)Nc2ccc(Cl)c(C(F)(F)F)c2)C(c2ccccc2)C1 (centres undefined)	Yes
CC1CN(C(=O)c2cc3ccccc3o2)CCN1C(=O)Nc1ccc(C#N)cc1 (centres undefined)	No
Cc1ccc(NC(=O)N2CCN(C(=O)OC(C)(C)C)CC2c2ccccc2)cc1 (centres undefined)	No
O=C(c1cc2ccccc2o1)N1CCN(C(=O)Nc2cc(C(F)(F)F)ccc2Cl)C(c2ccccc2)C1 (centres undefined)	No
CC1CN(C(=O)c2ccccc2)CCN1C(=S)Nc1ccc([N+](=O)[O-])cc1 (centres undefined)	No
O=C(c1cc2ccccc2o1)N1CCN(C(=O)Nc2ccc(F)cc2)C(c2ccccc2)C1 (centres undefined)	Yes

**Query** Just wondering, is CC50 at 48 h of O=C(c1cc2ccccc2o1)N1CCN(C(=O)Nc2ccc(Cl)cc2)C(c2ccccc2)C1 (centres undefined) below 30 µM?
**Result** No

**Query** Just wondering, is CC50 at 48 h of O=C(c1cc2ccccc2o1)N1CCN(C(=O)Nc2ccc([N+](=O)[O-])cc2)C(c2ccccc2)C1 (centres undefined) below 30 µM?
**Result** No

**Query** Just wondering, is CC50 at 48 h of CC(C)(C)C(=O)N1CCN(C(=O)Nc2ccc([N+](=O)[O-])cc2)C(c2ccccc2)C1 (centres undefined) below 30 µM?
**Result** No
